# Measured target: 5-HT2A (Homo sapiens)
# Sequence (P28223 whole entry): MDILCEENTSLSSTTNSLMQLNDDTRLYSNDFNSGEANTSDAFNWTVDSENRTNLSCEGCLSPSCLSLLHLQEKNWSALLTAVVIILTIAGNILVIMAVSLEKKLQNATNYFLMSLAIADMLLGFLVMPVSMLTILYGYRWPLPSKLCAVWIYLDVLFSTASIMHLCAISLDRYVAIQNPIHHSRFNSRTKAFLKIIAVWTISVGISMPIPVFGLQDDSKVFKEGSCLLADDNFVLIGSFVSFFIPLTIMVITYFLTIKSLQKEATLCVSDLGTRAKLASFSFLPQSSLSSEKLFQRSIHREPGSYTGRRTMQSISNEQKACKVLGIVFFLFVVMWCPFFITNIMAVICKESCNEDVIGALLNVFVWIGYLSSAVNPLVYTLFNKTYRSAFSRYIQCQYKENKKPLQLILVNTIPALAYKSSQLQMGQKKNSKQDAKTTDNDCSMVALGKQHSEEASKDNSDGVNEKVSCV
# Test summary: Serotonin 5-HT2A in vitro cellular IPOne agonism assay
# Protocol conditions: CHO-K1 cells, IPOne HTRF, 60 min
pEC50: −log10 of the molar value.
Property label: pEC50

[
  {
    "Cpd smiles": "Cc1ccc2c3c(n(C)c2n1)CCN(C)CC3",
    "Measured target": "5-HT2A (Homo sapiens)",
    "pEC50": "6.00 to 7.00"
  }
]

Ask: Specify measured pEC50 for c1cnc2[nH]c3c(c2c1)CCNCC3 .
Reply: 6.00 to 7.00

Ask: Specify measured pEC50 for CN1CCc2c(n(C)c3ncccc23)CC1 .
Reply: 6.00 to 7.00

Ask: Specify measured pEC50 for Clc1cnc2[nH]c3c(c2c1)CCNCC3 .
Reply: 7.00 to 8.00

Ask: Specify measured pEC50 for Cc1ccc2c3c(n(C)c2n1)CCNCC3 .
Reply: 7.00 to 8.00

Ask: Specify measured pEC50 for CN1CCc2c(n(C)c3ncc(Cl)cc23)CC1 .
Reply: 6.00 to 7.00

Ask: Specify measured pEC50 for Cn1c2c(c3cccnc31)CCNCC2 .
Reply: 6.00 to 7.00

These measurements were taken from patent US20230227453A1.
